# Test system: 648629-189-R-J1-PDC complex spheroids viability
# assay.remarks: Anticancer human tumor 648629-189-R-J1-PDC patient-derived bladder carcinoma cell line growth inhibition [CLK]
# conditions.used: curve of compound
measured.quantity: IC50

# count of solved cases: 7
## Task Requested read-out: IC50. Entry: C#Cc1c(F)ccc2cc(O)cc(-c3ncc4c(N5CC6CCC(C5)N6)nc(OCC56CCCN5CC(F)C6)nc4c3F)c12 (stereo not drawn)
## Result > 10000 nM

## Task Requested read-out: IC50. Entry: O=C(c1cc(Cc2n[nH]c(=O)c3ccccc23)ccc1F)N1CCN(C(=O)C2CC2)CC1
## Result > 10000 nM

## Task Requested read-out: IC50. Entry: C=CC(=O)N1CCN(c2nc(=O)n(-c3c(C)ccnc3C(C)C)c3nc(-c4c(O)cccc4F)c(F)cc23)C(C)C1 (stereo not drawn)
## Result > 10000 nM

## Task Requested read-out: IC50. Entry: Cn1ncnc1[C@H]1c2n[nH]c(=O)c3cc(F)cc(c23)N[C@@H]1c1ccc(F)cc1
## Result > 100 nM

## Task Requested read-out: IC50. Entry: CC(=O)O[C@H]1C(=O)[C@@]2(C)[C@H]([C@H](OC(=O)c3ccccc3)[C@]3(O)C[C@H](OC(=O)[C@H](O)[C@@H](NC(=O)c4ccccc4)c4ccccc4)C(C)=C1C3(C)C)[C@]1(OC(C)=O)CO[C@@H]1C[C@@H]2O
## Result < 31.6 nM

## Task Requested read-out: IC50. Entry: Nc1ccn(C2OC(CO)C(O)C2(F)F)c(=O)n1 (stereo not drawn)
## Result < 31.6 nM

## Task Requested read-out: IC50. Entry: C=CC(=O)Nc1cc(Nc2nccc(-c3cn(C)c4ccccc34)n2)c(OC)cc1N(C)CCN(C)C
## Result > 300 nM

Pending molecule:
## Task Requested read-out: IC50. Entry: CCc1c2c(nc3ccc(O)cc13)-c1cc3c(c(=O)n1C2)COC(=O)[C@]3(O)CC
## Result < 3.16 nM

----------
# Tested on: 648629-189-R-J1-PDC complex spheroids viability
# assay.remarks: Anticancer human tumor 648629-189-R-J1-PDC cell line growth inhibition [CLK]
# conditions.used: curve of first compound; second compound 0.1 µM
Measured IC50, listed per entry.

# count of solved cases: 3
## Task Requested read-out: IC50. Entry: COc1cccc2c1C(=O)c1c(O)c3c(c(O)c1C2=O)CC(O)(C(=O)CO)CC3OC1CC(N)C(O)C(C)O1 (centres undefined) + CNC(=O)c1ccc(Nc2nc(OC3CCCC3)c3c(-c4ccc5nc(C)oc5c4)c[nH]c3n2)c(OC)c1
## Result < 0.0316 µM

## Task Requested read-out: IC50. Entry: C#Cc1c(F)ccc2cc(O)cc(-c3ncc4c(N5CC6CCC(C5)N6)nc(OCC56CCCN5CC(F)C6)nc4c3F)c12 (centres undefined) + CN1CCN(c2cc(C(=O)Nc3cc4cc(-c5cnn(C)c5)ccc4cn3)ccn2)CC1
## Result > 10 µM

## Task Requested read-out: IC50. Entry: CC(=O)O[C@H]1C(=O)[C@@]2(C)[C@H]([C@H](OC(=O)c3ccccc3)[C@]3(O)C[C@H](OC(=O)[C@H](O)[C@@H](NC(=O)c4ccccc4)c4ccccc4)C(C)=C1C3(C)C)[C@]1(OC(C)=O)CO[C@@H]1C[C@@H]2O + CN1CCN(c2cc(C(=O)Nc3cc4cc(-c5cnn(C)c5)ccc4cn3)ccn2)CC1
## Result < 0.0316 µM

Further cases:
## Task Requested read-out: IC50. Entry: C=CC(=O)N1CCN(c2nc(=O)n(-c3c(C)ccnc3C(C)C)c3nc(-c4c(O)cccc4F)c(F)cc23)C(C)C1 (centres undefined) + CNC(=O)c1ccc(Nc2nc(OC3CCCC3)c3c(-c4ccc5nc(C)oc5c4)c[nH]c3n2)c(OC)c1
## Result > 10 µM
